Tested on: Ps. aeruginosa, 32121
PROTOCOL_DESCRIPTION: Antibacterial activity (MIC), Ps. aeruginosa 32121
Format: cell-based
CONDITION_LABEL: Pseudomonas aeruginosa, 32121, Ps. aeruginosa
ENDPOINT_LABEL: MIC (µg/mL)

>>> result("O=C(O)c1cn(C2CC2)c2c(F)c(N3CC(CO)C4(CCC4)C3)c(F)cc2c1=O (stereo not shown) [Compound 108]")
0.39
>>> result("C[C@H]1COc2c(N3CC(N)C4(CC4)C3)c(F)cc3c(=O)c(C(=O)O)cn1c23 (single isomer, unassigned; (-)) [Compound 36b]")
0.1
>>> result("O=C(O)c1cn(C2CC2)c2cc(N3CCNC4(CC4)C3)c(F)cc2c1=O [Compound 37]")
0.2
>>> result("NC1CN(c2c(F)cc3c(=O)c(C(=O)O)cn(C4CC4)c3c2Cl)CC12CC2 (single isomer, unassigned) [Compound 32a]")
0.1
>>> result("N[C@@H]1CN(c2nc3c(cc2F)c(=O)c(C(=O)O)cn3-c2ccc(F)cc2F)CC12CC2 [Compound 111b]")
0.1
>>> result("NC1CN(c2cc3c(cc2F)c(=O)c(C(=O)O)cn3-c2ccc(F)cc2F)CC12CC2 (stereo not shown) [Compound 34]")
0.2
>>> result("NC1CN(c2c(F)cc3c(=O)c(C(=O)O)cn(C4CC4)c3c2F)CC12CCC2 (stereo not shown) [Compound 94]")
0.39
>>> result("NC1CN(c2c(F)cc3c(=O)c(C(=O)O)cn(C4CC4)c3c2F)CC12CC2 (single isomer, unassigned; (+)) [Compound 31a]")
0.1
>>> result("O=C(O)c1cn(C2CC2)c2c(Cl)c(N3CC(O)C4(CC4)C3)c(F)cc2c1=O (stereo not shown) [Compound 39]")
0.39
>>> result("C[C@H]1COc2c(N3CC(N)C4(CC4)C3)c(F)cc3c(=O)c(C(=O)O)cn1c23 (stereo partly shown) [Compound 36]")
0.1
>>> result("C[C@H]1COc2c(N3CC(N)C4(CCC4)C3)c(F)cc3c(=O)c(C(=O)O)cn1c23 (stereo partly shown) [Compound 98]")
0.2

----------
Observed MIC values for Ser. marcescens, 10100 are listed in what follows.
ENDPOINT_LABEL: MIC

>>> result("O=C(O)c1cn(C2CC2)c2c(Cl)c(N3CC(O)C4(CC4)C3)c(F)cc2c1=O (centres unmarked) [Compound 39]")
"0.39 µg/mL"
>>> result("NC1CN(c2c(F)cc3c(=O)c(C(=O)O)cn(C4CC4)c3c2F)CC12CCC2 (centres unmarked) [Compound 94]")
"0.1 µg/mL"
>>> result("O=C(O)c1cn(C2CC2)c2cc(N3CCNC4(CC4)C3)c(F)cc2c1=O [Compound 37]")
"0.1 µg/mL"
>>> result("NC1CN(c2c(F)cc3c(=O)c(C(=O)O)cn(C4CC4)c3c2F)CC12CC2 (centres unmarked) [Compound 31]")
"≤ 0.05 µg/mL"
>>> result("NC1CN(c2cc3c(cc2F)c(=O)c(C(=O)O)cn3-c2ccc(F)cc2F)CC12CC2 (centres unmarked) [Compound 34]")
"0.39 µg/mL"

----------
Some compounds, each annotated with its measured MIC.
System: Str. pyogenes, G-36
ENDPOINT_LABEL: MIC (µg/mL)

>>> result("CC(C)(C)n1cc(C(=O)O)c(=O)c2cc(F)c(N3CC(N)C4(CC4)C3)nc21 (stereo not drawn) [Compound 41b]")
0.39
>>> result("N[C@@H]1CN(c2cc3c(cc2F)c(=O)c(C(=O)O)cn3C2CC2)CC12CC2 [Compound 33b]")
0.2
>>> result("NC1CN(c2cc3c(cc2F)c(=O)c(C(=O)O)cn3C2CC2)CC12CC2 (racemic)")
0.39
>>> result("Cc1c(N2CC(N)C3(CC3)C2)c(F)cc2c(=O)c(C(=O)O)cn(C3CC3)c12 (single isomer, unassigned; (-)) [Compound 55b]")
0.1
>>> result("NC1CN(c2c(F)cc3c(=O)c(C(=O)O)cn(C4CC4)c3c2F)CC12CCC2 (stereo not drawn)")
0.39
>>> result("NC1CN(c2c(F)cc3c(=O)c(C(=O)O)cn(C4CC4)c3c2Cl)CC12CC2 (racemic) [Compound 32]")
0.1
>>> result("N[C@@H]1CN(c2nc3c(cc2F)c(=O)c(C(=O)O)cn3-c2ccc(F)cc2F)CC12CC2 [Compound 111b]")
0.2
>>> result("C[C@H]1COc2c(N3CC(N)C4(CC4)C3)c(F)cc3c(=O)c(C(=O)O)cn1c23 (single isomer, unassigned; (-)) [Compound 36b]")
0.39
>>> result("NC1CN(c2c(F)cc3c(=O)c(C(=O)O)cn(C4CC4)c3c2Cl)CC12CC2 (single isomer, unassigned) [Compound 32a]")
0.78
>>> result("NC1CN(c2nc3c(cc2F)c(=O)c(C(=O)O)cn3C2CC2)CC12CC2 (single isomer, unassigned; (-)) [Compound 35b]")
0.78
>>> result("O=C(O)c1cn(C2CC2)c2cc(N3CCNC4(CC4)C3)c(F)cc2c1=O")
0.78
>>> result("NC1CN(c2c(F)cc3c(=O)c(C(=O)O)cn(C4CC4)c3c2F)CC12CCCC2 (stereo not drawn)")
0.2
>>> result("O=C(O)c1cn(C2CC2)c2c(Cl)c(N3CC(O)C4(CC4)C3)c(F)cc2c1=O (stereo not drawn)")
0.39
>>> result("NC1CN(c2c(F)cc3c(=O)c(C(=O)O)cn(C4CC4)c3c2F)CC12CC2 (stereo not drawn)")
0.39
>>> result("C[C@H]1COc2c(N3CC(N)C4(CC4)C3)c(F)cc3c(=O)c(C(=O)O)cn1c23 (stereo partly drawn) [Compound 36]")
0.39
